- system-under-test: Substance-P receptor (Homo sapiens)
- Sequence (P25103 whole entry): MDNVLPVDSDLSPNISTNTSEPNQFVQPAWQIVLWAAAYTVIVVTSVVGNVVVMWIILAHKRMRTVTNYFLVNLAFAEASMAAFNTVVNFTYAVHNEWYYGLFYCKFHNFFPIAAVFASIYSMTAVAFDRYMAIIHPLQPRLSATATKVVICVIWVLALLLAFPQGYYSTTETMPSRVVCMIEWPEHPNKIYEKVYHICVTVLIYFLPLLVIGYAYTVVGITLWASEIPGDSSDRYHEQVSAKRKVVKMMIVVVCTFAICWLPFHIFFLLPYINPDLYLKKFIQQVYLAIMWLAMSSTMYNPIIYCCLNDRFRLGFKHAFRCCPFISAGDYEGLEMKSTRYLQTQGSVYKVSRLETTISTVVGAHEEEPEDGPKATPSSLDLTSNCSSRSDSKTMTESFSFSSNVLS
- test-details: Binding affinity against recombinant human tachykinin receptor 1 in CHO cells using [3H]-Sar SP as a radioligand
value-type: Ki

| compound | system-under-test | value-type | result |
| --- | --- | --- | --- |
| CCO/N=C(\COCc1cc(C(F)(F)F)cc(C(F)(F)F)c1)C(CCN1CCC(O)(c2ccccc2)CC1)c1ccc(Cl)c(Cl)c1 (stereo not drawn) | Substance-P receptor (Homo sapiens) | Ki | 81 nM |
| NC(=O)CO/N=C(\COCc1cc(C(F)(F)F)cc(C(F)(F)F)c1)C(CCN1CCC(O)(c2ccccc2)CC1)c1ccc(Cl)c(Cl)c1 (stereo not drawn) | Substance-P receptor (Homo sapiens) | Ki | 17 nM |
| CN(C/C(=N\OCCCn1cnnn1)C(CCN1CCC(N2CCCCC2=O)CC1)c1ccc(Cl)c(Cl)c1)C(=O)c1cc(Cl)cc(Cl)c1 (stereo not drawn) | Substance-P receptor (Homo sapiens) | Ki | 0.8 nM |
| CN(C)/N=C(\COCc1cc(C(F)(F)F)cc(C(F)(F)F)c1)C(CCN1CCC(O)(c2ccccc2)CC1)c1ccc(Cl)c(Cl)c1 (stereo not drawn) | Substance-P receptor (Homo sapiens) | Ki | 38 nM |
| CN(C/C(=N\OCC(=O)NO)C(CCN1CCC(N2CCCCC2=O)CC1)c1ccc(Cl)c(Cl)c1)C(=O)c1cc(Cl)cc(Cl)c1 (stereo not drawn) | Substance-P receptor (Homo sapiens) | Ki | 1.2 nM |
| CN(C/C(=N\OCC(=N)NO)[C@H](CCN1CCC(N2CCCCC2=O)CC1)c1ccc(Cl)c(Cl)c1)C(=O)c1cc(Cl)cc(Cl)c1 | Substance-P receptor (Homo sapiens) | Ki | 0.4 nM |
| CONC(COCc1cc(C(F)(F)F)cc(C(F)(F)F)c1)C(CCN1CCC(O)(c2ccccc2)CC1)c1ccc(Cl)c(Cl)c1 (stereo not drawn) | Substance-P receptor (Homo sapiens) | Ki | 25 nM |
| CN(C/C(=N\OCC(C)(C)O)C(CCN1CCC(N2CCCCC2=O)CC1)c1ccc(Cl)c(Cl)c1)C(=O)c1cc(Cl)cc(Cl)c1 (stereo not drawn) | Substance-P receptor (Homo sapiens) | Ki | 1.9 nM |

----------
Measured pKi, listed per entry for reference.
- system-under-test: Substance-K receptor (Homo sapiens)
- Sequence (P21452 whole entry): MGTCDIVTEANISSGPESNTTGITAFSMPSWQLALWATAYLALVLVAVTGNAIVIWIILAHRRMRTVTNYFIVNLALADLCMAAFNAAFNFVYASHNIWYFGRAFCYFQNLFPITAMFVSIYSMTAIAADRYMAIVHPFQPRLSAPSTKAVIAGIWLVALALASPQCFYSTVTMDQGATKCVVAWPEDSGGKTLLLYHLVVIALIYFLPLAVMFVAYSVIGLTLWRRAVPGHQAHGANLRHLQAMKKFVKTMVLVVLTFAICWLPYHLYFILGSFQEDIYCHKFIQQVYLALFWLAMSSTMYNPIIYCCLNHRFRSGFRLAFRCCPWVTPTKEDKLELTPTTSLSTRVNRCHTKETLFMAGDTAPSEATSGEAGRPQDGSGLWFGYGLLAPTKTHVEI
- test-details: Binding affinity against recombinant human tachykinin receptor 2 in CHO cells using [3H]NKA as a radioligand
pKi: −log10 of the molar value.

| compound | pKi |
| --- | --- |
| COCCO/N=C(\CN(C)C(=O)c1cc(Cl)cc(Cl)c1)C(CCN1CCC(N2CCCCC2=O)CC1)c1ccc(Cl)c(Cl)c1 (centres undefined) | 8.51 |
| CN(C/C(=N\OCCCn1cncn1)C(CCN1CCC(N2CCCCC2=O)CC1)c1ccc(Cl)c(Cl)c1)C(=O)c1cc(Cl)cc(Cl)c1 (centres undefined) | 8.32 |
| CN(C/C(=N\OCCn1ccnc1)C(CCN1CCC(N2CCCCC2=O)CC1)c1ccc(Cl)c(Cl)c1)C(=O)c1cc(Cl)cc(Cl)c1 (centres undefined) | 8.27 |
| CN(C/C(=N\OCCCS(=O)(=O)O)C(CCN1CCC(N2CCCCC2=O)CC1)c1ccc(Cl)c(Cl)c1)C(=O)c1cc(Cl)cc(Cl)c1 (centres undefined) | 8.57 |
| CN(C/C(=N\OCCC[S+](C)[O-])C(CCN1CCC(N2CCCCC2=O)CC1)c1ccc(Cl)c(Cl)c1)C(=O)c1cc(Cl)cc(Cl)c1 (centres undefined) | 8.46 |
| COC(=O)CO/N=C(\COCc1cc(C(F)(F)F)cc(C(F)(F)F)c1)C(CCN1CCC(O)(c2ccccc2)CC1)c1ccc(Cl)c(Cl)c1 (centres undefined) | 6.70 |
| CN(C/C(=N\OCCCNS(C)(=O)=O)C(CCN1CCC(N2CCCCC2=O)CC1)c1ccc(Cl)c(Cl)c1)C(=O)c1cc(Cl)cc(Cl)c1 (centres undefined) | 8.35 |
| CN(C)/N=C(\COCc1cc(C(F)(F)F)cc(C(F)(F)F)c1)C(CCN1CCC(O)(c2ccccc2)CC1)c1ccc(Cl)c(Cl)c1 (centres undefined) | 7.62 |
| CN(C/C(=N\OCC(N)=O)C(CCN1CCC(N2CCCCC2=O)CC1)c1ccc(Cl)c(Cl)c1)C(=O)c1cc(Cl)cc(Cl)c1 (centres undefined) | 8.70 |
| CN(C/C(=N\OCC(C)(C)O)C(CCN1CCC(N2CCCCC2=O)CC1)c1ccc(Cl)c(Cl)c1)C(=O)c1cc(Cl)cc(Cl)c1 (centres undefined) | 7.64 |
| CN(C/C(=N\OCC(=O)O)C(CCN1CCC(N2CCCCC2=O)CC1)c1ccc(Cl)c(Cl)c1)C(=O)c1cc(Cl)cc(Cl)c1 (centres undefined) | 6.40 |
| CN(C/C(=N\OCCCN)C(CCN1CCC(N2CCCCC2=O)CC1)c1ccc(Cl)c(Cl)c1)C(=O)c1cc(Cl)cc(Cl)c1 (centres undefined) | 8.06 |
| N=C(CO/N=C(\COCc1cc(C(F)(F)F)cc(C(F)(F)F)c1)C(CCN1CCC(O)(c2ccccc2)CC1)c1ccc(Cl)c(Cl)c1)NO (centres undefined) | 7.72 |
| N#CO/N=C(\COCc1cc(C(F)(F)F)cc(C(F)(F)F)c1)C(CCN1CCC(O)(c2ccccc2)CC1)c1ccc(Cl)c(Cl)c1 (centres undefined) | 7.72 |
